Just for reference, patent US20250195513A1 is where these values come from.

Recorded measurements of IC50, one per entry
system: TNF-α production in THP-1 cells; assay: TNF-α Production Assay in THP-1 Cells (LPS stimulated); assay type: cell-based; settings: Homo sapiens, THP-1, 24 h

| Molecule Smiles | IC50 |
| --- | --- |
| CC(C)(O)c1cc2nn([C@H]3C[C@H](N4CCN(C5CCN(c6cc(F)c([C@H]7CCC(=O)NC7=O)c(F)c6)CC5)CC4)C3)cc2cc1NC(=O)c1ccc2cc(C#N)cnn12 | 19 nM |
| COC[C@H]1CN(CCc2cc(F)c([C@H]3CCC(=O)NC3=O)c(F)c2)CCN1[C@H]1CC[C@H](n2cc3cc(NC(=O)c4ccc5cc(C#N)cnn45)c(C(C)(C)O)cc3n2)CC1 | 55 nM |
| COC[C@H]1CN([C@H]2CC[C@H](n3cc4cc(NC(=O)c5ccc6cc(C#N)cnn56)c(C(C)(C)O)cc4n3)CC2)CCN1C(=O)C1CN(c2cc(F)c(N3CCC(=O)NC3=O)c(F)c2)C1 | 22 nM |

----------
biological target: IRAK4 (Homo sapiens); construct: endogenous in cells; host or cells: Karpas299; assay: IRAK4 Degradation Assay (Karpas299, HTRF/TR-FRET); type: cell-based; conditions: Karpas-299 cells, 24 h treatment; maximum percentage of degradation; read-out: IRAK4 in Karpas-299 (24 h) Dmax (%)
Sequence (Q9NWZ3 whole entry): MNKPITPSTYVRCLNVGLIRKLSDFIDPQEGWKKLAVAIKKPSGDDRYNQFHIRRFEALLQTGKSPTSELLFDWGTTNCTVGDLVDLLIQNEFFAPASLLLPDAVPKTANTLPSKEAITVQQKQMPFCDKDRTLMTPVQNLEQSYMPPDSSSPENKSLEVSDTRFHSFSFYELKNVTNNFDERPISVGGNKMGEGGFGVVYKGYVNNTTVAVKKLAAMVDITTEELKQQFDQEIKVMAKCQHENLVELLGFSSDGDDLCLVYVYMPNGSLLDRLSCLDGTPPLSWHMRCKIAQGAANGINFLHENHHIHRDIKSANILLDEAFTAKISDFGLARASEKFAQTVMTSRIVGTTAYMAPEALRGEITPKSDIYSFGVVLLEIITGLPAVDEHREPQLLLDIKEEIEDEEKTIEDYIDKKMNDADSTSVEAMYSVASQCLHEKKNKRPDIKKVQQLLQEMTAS
Recorded measurements of Dmax, one per entry

| Compound | Target | Units Symbol | Dmax |
| --- | --- | --- | --- |
| CC(C)(O)c1cc2nn([C@H]3CC[C@H](N4CCN(C5CCN(c6ccc(C7CCC(=O)NC7=O)cc6)CC5)CC4)CC3)cc2cc1NC(=O)c1ccc2cc(C#N)cnn12 (stereo partly shown) [Example 195] | IRAK4 (Homo sapiens) | % | 98 |
| C[C@@H]1CN([C@H]2CC[C@H](n3cc4cc(NC(=O)c5ccc6cc(C#N)cnn56)c(C(C)(C)O)cc4n3)CC2)CCN1CC1CN(c2cc(F)c([C@H]3CCC(=O)NC3=O)c(F)c2)C1 [Example 310] | IRAK4 (Homo sapiens) | % | 98 |
| COc1cc2nn(C3CCN(C4CCN(C(=O)C5CN(c6cc(F)c([C@H]7CCC(=O)NC7=O)c(F)c6)C5)CC4)CC3)cc2cc1NC(=O)c1cccc(C(F)(F)F)n1 [Example 45] | IRAK4 (Homo sapiens) | % | 98 |
| CC(C)(O)c1cc2nn([C@H]3CC[C@H](N4CCN(C(=O)C5CN(c6ccc(C7CCC(=O)NC7=O)nc6)C5)CC4)CC3)cc2cc1NC(=O)c1ccc2cc(C#N)cnn12 (stereo partly shown) [Example 255] | IRAK4 (Homo sapiens) | % | 97 |
| O=C1CC[C@H](c2c(F)cc(CCN3CCN(C[C@H]4CC[C@H](n5cc(NC(=O)c6coc(-c7ccnc(NCC(F)(F)F)c7)n6)c(C(F)F)n5)CC4)CC3)cc2F)C(=O)N1 [Example 1] | IRAK4 (Homo sapiens) | % | 46 |
| COC[C@H]1CN(C2CCN(c3cc(F)c([C@H]4CCC(=O)NC4=O)c(F)c3)CC2)CCN1[C@H]1CC[C@H](n2cc3cc(NC(=O)c4ccc5cc(C#N)cnn45)c(C(C)(C)O)cc3n2)CC1 [Example 324] | IRAK4 (Homo sapiens) | % | 95 |
| CC(C)(O)c1cc2nn([C@H]3CC[C@H](N4CCN(C(=O)[C@@H]5CCN(c6cc(F)c(N7CCC(=O)NC7=O)c(F)c6)C5)CC4)CC3)cc2cc1NC(=O)c1ccc2cc(C#N)cnn12 [Example 106] | IRAK4 (Homo sapiens) | % | 97 |
